conditions: in isopentanol, 313.15 K
readout-name: solubility (mole fraction)

>>> meas_value("COCCOC(=O)C1=C(C)NC(C)=C(C(=O)OC(C)C)C1c1cccc([N+](=O)[O-])c1 (stereo unspecified)")
0.0166

###

settings: in methanol, 318.15 K
readout-name: solubility (mole fraction)

>>> meas_value("COCCOC(=O)C1=C(C)NC(C)=C(C(=O)OC(C)C)C1c1cccc([N+](=O)[O-])c1 (stereo unspecified)")
0.0411

###

conditions: in cyclohexanone, 283.15 K
readout-name: solubility (mole fraction)

>>> meas_value("COCCOC(=O)C1=C(C)NC(C)=C(C(=O)OC(C)C)C1c1cccc([N+](=O)[O-])c1 (stereo unspecified)")
0.0164
